- Target System: α1A (Homo sapiens)
- Sequence (P35348 whole entry): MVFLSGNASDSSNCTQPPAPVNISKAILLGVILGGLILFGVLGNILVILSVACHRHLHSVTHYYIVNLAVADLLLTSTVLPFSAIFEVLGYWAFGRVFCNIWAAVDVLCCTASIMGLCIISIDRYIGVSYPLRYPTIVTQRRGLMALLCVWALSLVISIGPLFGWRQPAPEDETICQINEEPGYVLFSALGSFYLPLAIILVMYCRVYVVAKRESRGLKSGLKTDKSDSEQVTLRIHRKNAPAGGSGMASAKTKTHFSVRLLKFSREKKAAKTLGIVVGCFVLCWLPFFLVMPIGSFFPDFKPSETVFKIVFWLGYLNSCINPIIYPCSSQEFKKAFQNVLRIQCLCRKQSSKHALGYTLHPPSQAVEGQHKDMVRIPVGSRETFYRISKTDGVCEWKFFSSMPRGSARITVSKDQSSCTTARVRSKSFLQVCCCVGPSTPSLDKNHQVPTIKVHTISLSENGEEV
Parameter Measured: pKi
# pKi is unitless: minus log10 of the molar concentration; print number only

Entry COc1cc2c3c(c1OC)-c1ccccc1C[C@H]3N(C)CC2 [nuciferine] under α1A (Homo sapiens) had pKi of 5.86
